// endpoint MIC / system Staphylococcus aureus A-5278

entry-smiles	MIC
CC[C@H]1OC(=O)[C@H](C)C(=O)[C@H](C)[C@@H](O[C@@H]2O[C@H](C)C[C@H](N(C)C)[C@H]2O)[C@](C)(OC/C=C/c2cncc(-c3ccccn3)c2)C[C@@H](C)C(=O)[C@H](C)[C@H]2NC(=O)O[C@@]21C	> 100 µg/mL
CC[C@H]1OC(=O)[C@H](C)C(=O)[C@H](C)[C@@H](O[C@@H]2O[C@H](C)C[C@H](N(C)C)[C@H]2O)[C@](C)(OCC#Cc2ccc(-c3ccc(F)cc3)s2)C[C@@H](C)C(=O)[C@H](C)[C@H]2NC(=O)O[C@@]21C	> 100 µg/mL
CC[C@H]1OC(=O)[C@H](C)C(=O)[C@H](C)[C@@H](O[C@@H]2O[C@H](C)C[C@H](N(C)C)[C@H]2O)[C@](C)(OCC#Cc2ccc(-c3ncccn3)s2)C[C@@H](C)C(=O)[C@H](C)[C@H]2NC(=O)O[C@@]21C	> 100 µg/mL
CC[C@H]1OC(=O)[C@H](C)C(=O)[C@H](C)[C@@H](O[C@@H]2O[C@H](C)C[C@H](N(C)C)[C@H]2O)[C@](C)(OCC#Cc2ccc(-c3cncs3)s2)C[C@@H](C)C(=O)[C@H](C)[C@H]2NC(=O)O[C@@]21C	> 100 µg/mL
CC[C@H]1OC(=O)[C@H](C)C(=O)[C@H](C)[C@@H](O[C@@H]2O[C@H](C)C[C@H](N(C)C)[C@H]2O)[C@](C)(OCC#Cc2ccc(-c3cc(Cl)cc(Cl)c3)s2)C[C@@H](C)C(=O)[C@H](C)[C@H]2NC(=O)O[C@@]21C	12.5 µg/mL

----------
Below is a list of entries, each paired with its recorded MIC value.
- System: Escherichia coli DC-2
- experiment-summary: in vitro antibacterial activity (MIC), agar dilution
- Format: cell-based
- condition-description: organism code SS; BHI agar, 35-37° C., 20 to 24 hours; unit assumed

entry-smiles	MIC
CC[C@H]1OC(=O)[C@H](C)C(=O)[C@H](C)[C@@H](O[C@@H]2O[C@H](C)C[C@H](N(C)C)[C@H]2O)[C@](C)(OC/C=C/c2cncc(-c3cncnc3)c2)C[C@@H](C)C(=O)[C@H](C)[C@H]2NC(=O)O[C@@]21C	25 µg/mL
CC[C@H]1OC(=O)[C@H](C)C(=O)[C@H](C)[C@@H](O[C@@H]2O[C@H](C)C[C@H](N(C)C)[C@H]2O)[C@](C)(OC/C=C/c2ccc(-c3ccccn3)s2)C[C@@H](C)C(=O)[C@H](C)[C@H]2NC(=O)O[C@@]21C	25 µg/mL
CC[C@H]1OC(=O)[C@H](C)C(=O)[C@H](C)[C@@H](O[C@@H]2O[C@H](C)C[C@H](N(C)C)[C@H]2O)[C@](C)(OCC#Cc2ccc(-c3ccc(Cl)s3)s2)C[C@@H](C)C(=O)[C@H](C)[C@H]2NC(=O)O[C@@]21C	> 100 µg/mL
CC[C@H]1OC(=O)[C@H](C)C(=O)[C@H](C)[C@@H](O[C@@H]2O[C@H](C)C[C@H](N(C)C)[C@H]2O)[C@](C)(OC/C=C/c2ccc(-c3ccsc3)s2)C[C@@H](C)C(=O)[C@H](C)[C@H]2NC(=O)O[C@@]21C	100 µg/mL
CC[C@H]1OC(=O)[C@H](C)C(=O)[C@H](C)[C@@H](O[C@@H]2O[C@H](C)C[C@H](N(C)C)[C@H]2O)[C@](C)(OC/C=C/c2cncc(-c3ccccn3)c2)C[C@@H](C)C(=O)[C@H](C)[C@H]2NC(=O)O[C@@]21C	25 µg/mL
CC[C@H]1OC(=O)[C@H](C)C(=O)[C@H](C)[C@@H](O[C@@H]2O[C@H](C)C[C@H](N(C)C)[C@H]2O)[C@](C)(OC/C=C/c2ccc(-c3ccc(Cl)c(Cl)c3)s2)C[C@@H](C)C(=O)[C@H](C)[C@H]2NC(=O)O[C@@]21C	> 100 µg/mL
CC[C@H]1OC(=O)[C@H](C)C(=O)[C@H](C)[C@@H](O[C@@H]2O[C@H](C)C[C@H](N(C)C)[C@H]2O)[C@](C)(OC/C=C/c2cnc(-c3cncs3)s2)C[C@@H](C)C(=O)[C@H](C)[C@H]2NC(=O)O[C@@]21C	100 µg/mL
CC[C@H]1OC(=O)[C@H](C)C(=O)[C@H](C)[C@@H](O[C@@H]2O[C@H](C)C[C@H](N(C)C)[C@H]2O)[C@](C)(OCC#Cc2ccc(-c3cccc(C(F)(F)F)c3)s2)C[C@@H](C)C(=O)[C@H](C)[C@H]2NC(=O)O[C@@]21C	> 100 µg/mL
CC[C@H]1OC(=O)[C@H](C)C(=O)[C@H](C)[C@@H](O[C@@H]2O[C@H](C)C[C@H](N(C)C)[C@H]2O)[C@](C)(OCC#Cc2ccc(-c3cncc(C#N)c3)s2)C[C@@H](C)C(=O)[C@H](C)[C@H]2NC(=O)O[C@@]21C	> 100 µg/mL
CC[C@H]1OC(=O)[C@H](C)C(=O)[C@H](C)[C@@H](O[C@@H]2O[C@H](C)C[C@H](N(C)C)[C@H]2O)[C@](C)(OCC#Cc2ccc(-c3cccc(Cl)c3)s2)C[C@@H](C)C(=O)[C@H](C)[C@H]2NC(=O)O[C@@]21C	> 100 µg/mL
CC[C@H]1OC(=O)[C@H](C)C(=O)[C@H](C)[C@@H](O[C@@H]2O[C@H](C)C[C@H](N(C)C)[C@H]2O)[C@](C)(OCC#Cc2ccc(-c3cnc4ccccc4n3)s2)C[C@@H](C)C(=O)[C@H](C)[C@H]2NC(=O)O[C@@]21C	> 100 µg/mL
CC[C@H]1OC(=O)[C@H](C)C(=O)[C@H](C)[C@@H](O[C@@H]2O[C@H](C)C[C@H](N(C)C)[C@H]2O)[C@](C)(OC/C=C/c2cnc(-c3ncc(Br)s3)s2)C[C@@H](C)C(=O)[C@H](C)[C@H]2NC(=O)O[C@@]21C	> 100 µg/mL
CC[C@H]1OC(=O)[C@H](C)C(=O)[C@H](C)[C@@H](O[C@@H]2O[C@H](C)C[C@H](N(C)C)[C@H]2O)[C@](C)(OCC#Cc2ccc(-c3cncnc3)s2)C[C@@H](C)C(=O)[C@H](C)[C@H]2NC(=O)O[C@@]21C	50 µg/mL
CC[C@H]1OC(=O)[C@H](C)C(=O)[C@H](C)[C@@H](O[C@@H]2O[C@H](C)C[C@H](N(C)C)[C@H]2O)[C@](C)(OC/C=C/c2cncc(-c3ccsc3)c2)C[C@@H](C)C(=O)[C@H](C)[C@H]2NC(=O)O[C@@]21C	50 µg/mL
CC[C@H]1OC(=O)[C@H](C)C(=O)[C@H](C)[C@@H](O[C@@H]2O[C@H](C)C[C@H](N(C)C)[C@H]2O)[C@](C)(OC/C=C/c2ccc3ncc(-c4ccco4)cc3c2)C[C@@H](C)C(=O)[C@H](C)[C@H]2NC(=O)O[C@@]21C	> 100 µg/mL
CC[C@H]1OC(=O)[C@H](C)C(=O)[C@H](C)[C@@H](O[C@@H]2O[C@H](C)C[C@H](N(C)C)[C@H]2O)[C@](C)(OC/C=C/c2cncc(-c3nccs3)c2)C[C@@H](C)C(=O)[C@H](C)[C@H]2NC(=O)O[C@@]21C	25 µg/mL
